Taken from patent US5925769A.

target_desc: 5-LO (Rattus norvegicus, UniProt P12527)
Construct: the supernatant was saved as the source of enzymes; endogenous in cells; host or cells: RBL-1 (rat basophilic leukemia) cells
Sequence (P12527 whole entry): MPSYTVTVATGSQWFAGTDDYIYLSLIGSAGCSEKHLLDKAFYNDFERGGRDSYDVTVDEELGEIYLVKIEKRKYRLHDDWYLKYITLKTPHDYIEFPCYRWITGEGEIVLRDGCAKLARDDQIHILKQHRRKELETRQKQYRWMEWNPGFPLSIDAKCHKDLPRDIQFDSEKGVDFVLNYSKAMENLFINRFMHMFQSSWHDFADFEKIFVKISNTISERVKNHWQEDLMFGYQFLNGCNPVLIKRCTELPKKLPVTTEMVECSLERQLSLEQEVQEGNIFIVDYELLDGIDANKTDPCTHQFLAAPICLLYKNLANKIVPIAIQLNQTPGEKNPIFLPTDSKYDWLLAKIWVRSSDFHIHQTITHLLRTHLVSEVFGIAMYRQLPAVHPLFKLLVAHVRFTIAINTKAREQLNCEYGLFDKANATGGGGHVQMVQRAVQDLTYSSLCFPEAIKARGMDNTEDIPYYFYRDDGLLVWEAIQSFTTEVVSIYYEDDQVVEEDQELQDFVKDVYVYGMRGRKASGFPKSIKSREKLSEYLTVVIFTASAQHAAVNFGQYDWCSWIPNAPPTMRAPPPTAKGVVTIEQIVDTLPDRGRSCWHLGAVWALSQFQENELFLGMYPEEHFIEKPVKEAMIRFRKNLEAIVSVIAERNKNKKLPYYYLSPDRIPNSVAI
test_summary: Procedure III: 5-LO (5-HETE) in intact RBL-1 cells
Assay type: cell-based
test_conditions: calcium ionophore A 23187, read-out: Proc. III 5-LO IC50
quantity_kind: log10 of IC50 (log10 of the value in µM)

[
  {
    "compound": "COc1ccc(-n2nc(C#CCN(O)C(N)=O)cc2-c2ccc(C)cc2)cc1",
    "log10 of IC50": 0.67
  },
  {
    "compound": "CCc1ccc(-c2cc(C#CC(C)N(O)C(C)=O)nn2-c2ccc(OC)cc2)cc1 (stereo not drawn)",
    "log10 of IC50": 1.08
  },
  {
    "compound": "COc1ccc(-n2nc(C#CC(C(C)C)N(O)C(N)=O)cc2-c2ccc(C)cc2)cc1 (stereo not drawn)",
    "log10 of IC50": 0.92
  },
  {
    "compound": "COc1ccc(-n2nc(C#CC(C)N(O)C(=O)c3cccnc3)cc2-c2ccc(C)cc2)cc1 (stereo not drawn)",
    "log10 of IC50": 1.40
  },
  {
    "compound": "COc1ccc(-n2nc(C#CC(C(C)C)N(O)C(N)=O)cc2-c2ccc(Cl)cc2)cc1 (stereo not drawn)",
    "log10 of IC50": 0.59
  },
  {
    "compound": "CCOC(=O)CCC(=O)N(O)C(C)C#Cc1cc(-c2ccc(CC)cc2)n(-c2ccc(OC)cc2)n1 (stereo not drawn)",
    "log10 of IC50": 0.71
  },
  {
    "compound": "COc1ccc(-n2nc(C#CC(C)N(O)C(=O)N3CCCCC3)cc2-c2ccc(Cl)cc2)cc1 (stereo not drawn)",
    "log10 of IC50": 0.90
  },
  {
    "compound": "COc1ccc(-n2nc(C#CC(C)N(O)C(=O)c3ccccc3)cc2-c2ccc(Cl)cc2)cc1 (stereo not drawn)",
    "log10 of IC50": 0.26
  },
  {
    "compound": "COc1ccc(-n2nc(C#CCN(O)C(C)=O)cc2-c2ccc(C)cc2)cc1",
    "log10 of IC50": 0.86
  }
]

###

The entries below come with measured pIC50 values attached.
target_desc: CO (Rattus norvegicus, UniProt Q63921)
Construct: the supernatant was saved as the source of enzymes; endogenous in cells; host or cells: RBL-1 (rat basophilic leukemia) cells
Sequence (Q63921 27-602): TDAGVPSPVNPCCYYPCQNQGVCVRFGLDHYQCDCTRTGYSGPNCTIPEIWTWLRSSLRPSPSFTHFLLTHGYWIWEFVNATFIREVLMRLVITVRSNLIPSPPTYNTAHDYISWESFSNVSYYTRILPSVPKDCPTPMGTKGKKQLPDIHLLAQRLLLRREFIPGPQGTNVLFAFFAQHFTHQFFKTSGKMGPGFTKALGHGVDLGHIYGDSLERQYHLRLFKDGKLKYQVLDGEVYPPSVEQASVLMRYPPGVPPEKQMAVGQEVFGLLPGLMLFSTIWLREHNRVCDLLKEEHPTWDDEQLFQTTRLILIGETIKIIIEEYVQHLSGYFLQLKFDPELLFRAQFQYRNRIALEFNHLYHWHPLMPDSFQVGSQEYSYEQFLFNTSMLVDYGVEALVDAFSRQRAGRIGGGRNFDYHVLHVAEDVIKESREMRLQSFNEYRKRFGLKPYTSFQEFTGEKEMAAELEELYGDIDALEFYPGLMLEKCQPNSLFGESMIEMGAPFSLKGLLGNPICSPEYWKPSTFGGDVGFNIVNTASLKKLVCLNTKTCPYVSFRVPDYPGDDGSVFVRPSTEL
test_summary: Procedure III: CO (PgD2) in intact RBL-1 cells
Assay type: cell-based
test_conditions: calcium ionophore A 23187, read-out: Proc. III CO IC50
pIC50: −log10 of the molar value.

[
  {
    "compound": "COc1ccc(-n2nc(C#CC(C(C)C)N(O)C(N)=O)cc2-c2ccc(C)cc2)cc1 (centres unmarked)",
    "pIC50": 5.92
  },
  {
    "compound": "COc1ccc(-n2nc(C#CC(C)N(O)C(=O)C(C)C)cc2-c2ccc(C)cc2)cc1 (centres unmarked)",
    "pIC50": 7.05
  },
  {
    "compound": "CCc1ccc(-c2cc(C#CC(C)N(O)C(=O)C(C)C)nn2-c2ccc(OC)cc2)cc1 (centres unmarked)",
    "pIC50": 6.74
  },
  {
    "compound": "COc1ccc(-n2nc(C#CC(C)N(O)C(=O)N3CCOCC3)cc2-c2ccc(Cl)cc2)cc1 (centres unmarked)",
    "pIC50": 5.80
  },
  {
    "compound": "COc1ccc(-n2nc(C#CC(C)N(O)C(=O)C(F)(F)F)cc2-c2ccc(C)cc2)cc1 (centres unmarked)",
    "pIC50": 6.72
  },
  {
    "compound": "COc1ccc(-n2nc(C#CC(C)N(O)C(=O)Cn3ccnc3)cc2-c2ccc(C)cc2)cc1 (centres unmarked)",
    "pIC50": 5.44
  },
  {
    "compound": "COc1ccc(-n2nc(C#CCN(O)C(N)=O)cc2-c2ccc(C)cc2)cc1",
    "pIC50": 4.92
  },
  {
    "compound": "CCc1ccc(-c2cc(C#CC(C)N(O)C(=O)OC)nn2-c2ccc(OC)cc2)cc1 (centres unmarked)",
    "pIC50": 6.12
  },
  {
    "compound": "COc1ccc(-n2nc(C#CC(C)N(O)C(=O)CCl)cc2-c2ccc(C)cc2)cc1 (centres unmarked)",
    "pIC50": 6.44
  },
  {
    "compound": "CCC(C#Cc1cc(-c2ccc(C)cc2)n(-c2ccc(OC)cc2)n1)N(O)C(N)=O (centres unmarked)",
    "pIC50": 5.68
  },
  {
    "compound": "COc1ccc(-n2nc(C#CCN(O)C(C)=O)cc2-c2ccc(C)cc2)cc1",
    "pIC50": 7.52
  },
  {
    "compound": "COc1ccc(-n2nc(C#CC(C)N(O)C(C)=O)cc2-c2ccc(C)cc2)cc1 (centres unmarked)",
    "pIC50": 6.96
  },
  {
    "compound": "COC(=O)N(O)C(C)C#Cc1cc(-c2ccc(C)cc2)n(-c2ccc(OC)cc2)n1 (centres unmarked)",
    "pIC50": 6.31
  },
  {
    "compound": "CCOC(=O)C(=O)N(O)C(C)C#Cc1cc(-c2ccc(C)cc2)n(-c2ccc(OC)cc2)n1 (centres unmarked)",
    "pIC50": 5.47
  },
  {
    "compound": "COc1ccc(-n2nc(C#CC(C)N(O)C(=O)c3cccnc3)cc2-c2ccc(C)cc2)cc1 (centres unmarked)",
    "pIC50": 4.94
  },
  {
    "compound": "CCc1ccc(-c2cc(C#CC(C)N(O)C(=O)CCl)nn2-c2ccc(OC)cc2)cc1 (centres unmarked)",
    "pIC50": 5.77
  },
  {
    "compound": "COc1ccc(-n2nc(C#CC(C)N(O)C(N)=O)cc2-c2ccc(Cl)cc2)cc1 (centres unmarked)",
    "pIC50": 5.21
  }
]

###

target_desc: Sheep seminal vesicle (SSV) cyclooxygenase (Ovis aries)
Sequence (P05979 25-600): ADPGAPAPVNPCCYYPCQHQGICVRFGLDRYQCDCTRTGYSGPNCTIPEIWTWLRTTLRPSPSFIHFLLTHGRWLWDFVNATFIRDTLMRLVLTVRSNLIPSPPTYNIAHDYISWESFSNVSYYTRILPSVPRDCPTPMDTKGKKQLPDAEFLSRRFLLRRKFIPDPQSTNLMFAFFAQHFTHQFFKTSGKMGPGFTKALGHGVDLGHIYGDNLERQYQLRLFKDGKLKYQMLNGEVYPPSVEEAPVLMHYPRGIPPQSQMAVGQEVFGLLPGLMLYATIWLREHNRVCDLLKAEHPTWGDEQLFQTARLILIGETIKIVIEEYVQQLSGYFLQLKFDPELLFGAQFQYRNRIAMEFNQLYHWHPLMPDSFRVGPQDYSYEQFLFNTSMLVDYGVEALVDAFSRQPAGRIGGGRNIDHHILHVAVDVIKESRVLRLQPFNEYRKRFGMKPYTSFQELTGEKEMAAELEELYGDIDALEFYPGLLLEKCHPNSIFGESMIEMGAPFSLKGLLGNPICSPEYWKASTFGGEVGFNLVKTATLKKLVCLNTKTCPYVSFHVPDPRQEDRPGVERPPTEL
quantity_kind: IC50 (µM)

[
  {
    "molecule": "COc1ccc(-n2nc(C#CC(C)N(O)C(=O)C(F)(F)F)cc2-c2ccc(C)cc2)cc1 (centres unmarked)",
    "quantity_kind": "IC50",
    "reading": 0.42
  },
  {
    "molecule": "CCOC(=O)CCC(=O)N(O)C(C)C#Cc1cc(-c2ccc(C)cc2)n(-c2ccc(OC)cc2)n1 (centres unmarked)",
    "quantity_kind": "IC50",
    "reading": 2.93
  },
  {
    "molecule": "CCc1ccc(-c2cc(C#CC(C)N(O)C(C)=O)nn2-c2ccc(OC)cc2)cc1 (centres unmarked)",
    "quantity_kind": "IC50",
    "reading": 2.51
  },
  {
    "molecule": "COC(=O)N(O)C(C)C#Cc1cc(-c2ccc(Cl)cc2)n(-c2ccc(OC)cc2)n1 (centres unmarked)",
    "quantity_kind": "IC50",
    "reading": 1.62
  },
  {
    "molecule": "COc1ccc(-n2nc(C#CC(C)N(O)C(=O)C(C)C)cc2-c2ccc(C)cc2)cc1 (centres unmarked)",
    "quantity_kind": "IC50",
    "reading": 0.39
  },
  {
    "molecule": "COc1ccc(-n2nc(C#CC(C)N(O)C(C)=O)cc2-c2ccc(C)cc2)cc1 (centres unmarked)",
    "quantity_kind": "IC50",
    "reading": 0.31
  },
  {
    "molecule": "COc1ccc(-n2nc(C#CCN(O)C(N)=O)cc2-c2ccc(C)cc2)cc1",
    "quantity_kind": "IC50",
    "reading": 1.02
  },
  {
    "molecule": "COc1ccc(-n2nc(C#CC(C)N(O)C(N)=O)cc2-c2ccc(Cl)cc2)cc1 (centres unmarked)",
    "quantity_kind": "IC50",
    "reading": 32
  }
]
